System: MCF7 breast
ASSAY_COMMENT: NCI-60 one-dose screen, 48 h (100 = growth as untreated, 0 = no growth, -100 = all killed)
TEST_PARAMETERS: 10 µM
Compounds without any hit were thinned out: in the full panel of roughly 83,000, 20% have a hit.
Classification field: Y = growth at or over 70%; N = growth under 70%.

Worked examples, 6 compounds total:
> print(dat)
                                   compound  assigned.class
1  COc1ccc(C(=O)Nc2ccc3nc(N4CCCCC4)cc(C)c3c2)cc1OC               Y
2  O=S(=O)(c1ccccc1)n1cc2c(c1-c1ccccc1)CCc1sc(Nc3ccccc3)nc1-2               Y
3  COc1ccc(CCN2C(=O)/C(=C/c3ccc(C4Oc5ccccc5C5CC(c6cccc(OC)c6)=NN54)cc3)SC2=S)cc1 (centres undefined)               Y
4  O=C(NC1CCN(Cc2ccccc2)CC1)c1cc2nc(-c3ccc(Cl)s3)cc(C(F)(F)F)n2n1               N
5  CCCCCCc1cc2cc(-c3nc4ccccc4[nH]3)c(=Nc3ccccc3C)oc2cc1O               N
6  Cc1ccc(C2CC(c3ccc(Nc4nc(NCCO)nc(Nc5ccc(Cl)cc5)n4)cc3)=NN2c2cc(Cl)cc(Cl)c2)cc1 (centres undefined)               Y

Ask: For this compound, is measured growth 70% or higher? COC(=O)c1c2c(c(C)[n+]([O-])c1C)C(=O)C=C(NCc1ccccc1)C2=O
Reply: N

Ask: Exam item: decide whether the reported growth for CCCC(=O)CC(C)=O.CCCC(=O)CC(C)=O.[Cu] is at least 70%.
Reply: Y

Ask: Textbook exercise: given the entry O=C(c1nc2ccccc2[nH]1)C1C(c2ccc(F)cc2)C2CC3CCCCC3N2[C@@]12C(=O)Nc1ccc(Cl)cc12 (some centres undefined) , state whether its growth is greater than or equal to 70%.
Reply: N
